Please provide measured KM for the entries that follow.
Target: Factor X (FX), P00742
Sequence (P00742 whole entry, looked up): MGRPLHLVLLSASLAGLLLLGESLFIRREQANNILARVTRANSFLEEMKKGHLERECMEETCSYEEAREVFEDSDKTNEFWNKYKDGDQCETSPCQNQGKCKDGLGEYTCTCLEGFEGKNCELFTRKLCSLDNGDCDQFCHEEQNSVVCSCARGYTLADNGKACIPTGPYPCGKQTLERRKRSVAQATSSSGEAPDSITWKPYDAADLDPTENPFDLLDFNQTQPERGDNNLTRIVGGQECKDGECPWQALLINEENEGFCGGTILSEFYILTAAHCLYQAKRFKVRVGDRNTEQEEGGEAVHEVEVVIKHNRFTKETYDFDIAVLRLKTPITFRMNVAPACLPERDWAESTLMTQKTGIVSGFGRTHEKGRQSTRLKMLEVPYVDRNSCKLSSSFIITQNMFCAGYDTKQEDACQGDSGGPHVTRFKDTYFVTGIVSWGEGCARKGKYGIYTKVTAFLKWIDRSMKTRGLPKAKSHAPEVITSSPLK
Numbers only, in µM.

Example proteins with recorded KM:
FIXa-Y155F/K247N/N249S/N260S (protein) chain 1: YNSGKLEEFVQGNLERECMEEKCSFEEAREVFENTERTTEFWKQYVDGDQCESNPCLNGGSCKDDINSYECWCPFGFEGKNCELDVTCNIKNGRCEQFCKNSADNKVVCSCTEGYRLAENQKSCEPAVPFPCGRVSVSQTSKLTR chain 2: VVGGEDAKPGQFPWQVVLNGKVDAFCGGSIVNEKWIVTAAHCVETGVKITVVAGEHNIEETEHTEQNRSVIRIIPHHNYSAAINKYNHDIALLELDEPLVLNSYVTPICIADKEYTNIFLKFGSGYVSGWGRVFHKGRSALVLQYLRVPLVDRATCLRSTKFTIYNNMFCAGFHEGGRDSCQGDSGGPHVTEVEGTSFLTGIISWGEECAMKGKYGIYTKVSRYVNWIKEKTKLT    0.0965
FIXa-Y155F/K247N/N249S/R318Y/R338E/T343R/E410N (protein) chain 1: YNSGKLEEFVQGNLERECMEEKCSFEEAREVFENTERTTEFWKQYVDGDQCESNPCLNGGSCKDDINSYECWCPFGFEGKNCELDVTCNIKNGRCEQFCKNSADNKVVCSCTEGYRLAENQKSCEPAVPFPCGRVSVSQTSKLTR chain 2: VVGGEDAKPGQFPWQVVLNGKVDAFCGGSIVNEKWIVTAAHCVETGVKITVVAGEHNIEETEHTEQNRSVIRIIPHHNYNAAINKYNHDIALLELDEPLVLNSYVTPICIADKEYTNIFLKFGSGYVSGWGRVFHKGYSALVLQYLRVPLVDRATCLESTKFRIYNNMFCAGFHEGGRDSCQGDSGGPHVTEVEGTSFLTGIISWGEECAMKGKYGIYTKVSRYVNWIKNKTKLT    0.0177
FIXa-Y155F/K247N/N249S/R318Y/R338E/T343R/R403E/E410N (protein) chain 1: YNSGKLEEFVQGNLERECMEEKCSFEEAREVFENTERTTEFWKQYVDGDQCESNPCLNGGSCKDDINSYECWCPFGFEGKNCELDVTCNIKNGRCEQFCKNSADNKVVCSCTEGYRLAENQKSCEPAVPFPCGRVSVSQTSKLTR chain 2: VVGGEDAKPGQFPWQVVLNGKVDAFCGGSIVNEKWIVTAAHCVETGVKITVVAGEHNIEETEHTEQNRSVIRIIPHHNYNAAINKYNHDIALLELDEPLVLNSYVTPICIADKEYTNIFLKFGSGYVSGWGRVFHKGYSALVLQYLRVPLVDRATCLESTKFRIYNNMFCAGFHEGGRDSCQGDSGGPHVTEVEGTSFLTGIISWGEECAMKGKYGIYTKVSEYVNWIKNKTKLT    0.0257

Continue with the next protein.
Recorded KM for FIXa-Y155F/K247N/N249S/T343R/R403E/E410N (protein) chain 1: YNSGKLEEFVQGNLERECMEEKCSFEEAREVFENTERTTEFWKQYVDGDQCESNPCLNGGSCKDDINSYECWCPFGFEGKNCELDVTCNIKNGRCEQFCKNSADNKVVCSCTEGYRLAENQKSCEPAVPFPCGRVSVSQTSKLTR chain 2: VVGGEDAKPGQFPWQVVLNGKVDAFCGGSIVNEKWIVTAAHCVETGVKITVVAGEHNIEETEHTEQNRSVIRIIPHHNYNAAINKYNHDIALLELDEPLVLNSYVTPICIADKEYTNIFLKFGSGYVSGWGRVFHKGRSALVLQYLRVPLVDRATCLRSTKFRIYNNMFCAGFHEGGRDSCQGDSGGPHVTEVEGTSFLTGIISWGEECAMKGKYGIYTKVSEYVNWIKNKTKLT , please?
0.052
